assayed_system: full-length T877A-AR (VP16 fusion) (human)
measurement_description: two-hybrid
Classify by measured two-hybrid reporter activity (Gal-4 = 1): criterion met if it is equal to or exceeds 4000, criterion not met if it is smaller.

Some entries whose results are on file:
>  <binder>
PAPKFKEFFYAE [A43 (Gal-4 fusion)]

>  <label_value>
criterion met

$$$$
>  <binder>
ANSSFRDWYTSS [B46 (Gal-4 fusion)]

>  <label_value>
criterion not met

$$$$
>  <binder>
KTRYIFDLFYKRKAY [BUD31 peptide (Gal-4 fusion)]

>  <label_value>
criterion met

$$$$
>  <binder>
SSFADLWRNEAT [C314 (Gal-4 fusion)]

>  <label_value>
criterion not met

$$$$
>  <binder>
EASNSSFARLFH [B426 (Gal-4 fusion)]

>  <label_value>
criterion not met

$$$$
>  <binder>
RGAFQNLFQSV [ARN20 (Gal-4 fusion)]

>  <label_value>
criterion not met

$$$$

Exam item: Decide: two-hybrid reporter activity (Gal-4 = 1) of TEPPAAFRQLFF [C317 (Gal-4 fusion)] >= 4000?
Marked response: criterion met

Exam item: Has HPTHSSRLWELLMEATPTM [D30 (Gal-4 fusion)] a recorded two-hybrid reporter activity (Gal-4 = 1) greater than or equal to 4000?
Marked response: criterion met

Exam item: I'd appreciate it if you could say whether HTSMFESFFRKE [HF-15 (Gal-4 fusion)] has two-hybrid reporter activity (Gal-4 = 1) at least equal to 4000.
Marked response: criterion met
